organism: Oryctolagus cuniculus; test: cells; assay type: functional, organism-based, Stomach; settings: Stomach
Description: In vitro inhibition of 14C amino-pyrine uptake was determined in isolated rabbit gastric glands after dbcAMP stimulation
So basically, if IC50 comes in under 2 µM it's True, and if it's 2 µM or more it's False.

[O-][S+](Cc1ncccc1OC(F)F)c1nc2cscc2[nH]1 (stereo unspecified); False
[O-][S+](Cc1cc(OCc2cc(F)cc(F)c2)ccn1)c1nc2cscc2[nH]1 (stereo unspecified); True
Cc1sc(C)c2[nH]c([S+]([O-])Cc3cc(OCC(F)(F)C(F)(F)F)ccn3)nc12 (stereo unspecified); True
Cc1c(OCC(F)(F)F)ccnc1C[S+]([O-])c1nc2cscc2[nH]1 (stereo unspecified); False
[O-][S+](Cc1cc(OCc2cc(C(F)(F)F)cc(C(F)(F)F)c2)ccn1)c1nc2cscc2[nH]1 (stereo unspecified); True

Please indicate whether the reported IC50 of [O-][S+](Cc1cc(OCC(F)(F)C(F)(F)C(F)(F)F)ccn1)c1nc2cscc2[nH]1 (stereo unspecified) [SAVIPRAZOLE] is strictly below 2 µM.
True

Note, next up: [O-][S+](Cc1cc(Oc2ccc(Cl)c(Cl)c2)ccn1)c1nc2cscc2[nH]1 (stereo unspecified)
False

Note, next up: [O-][S+](Cc1ncccc1F)c1nc2cscc2[nH]1 (stereo unspecified)
False

Note, next up: [O-][S+](Cc1cc(OCc2ccccc2)ccn1)c1nc2cscc2[nH]1 (stereo unspecified)
True

Note, next up: [O-][S+](Cc1cc(OCc2ccc(C(F)(F)F)cc2)ccn1)c1nc2cscc2[nH]1 (stereo unspecified)
True

---

Each record here notes measured half-life.
experiment: Chemical stability at pH 7.0; format: physicochemical; conditions: buffer
Field: numeric (min). Do not append units.

COc1c(OCC(F)(F)C(F)(F)F)ccnc1C[S+]([O-])c1nc2cscc2[nH]1 (stereo not drawn); 1380
[O-][S+](Cc1cc(OCC(F)(F)C(F)(F)C(F)(F)F)ccn1)c1nc2cscc2[nH]1 (stereo not drawn); 480

In the following, a different molecule is considered.
Give its half-life value. Item: COc1ccc2[nH]c([S+]([O-])Cc3ncc(C)c(OC)c3C)nc2c1 (stereo not drawn)
1020

---

assay: physchem
Description: pKa value of the compound
# if value of pKa reaches 4, tag condition met; if it stays below, tag condition not met

Solved cases (4 shown):
[O-][S+](Cc1cc(OCC(F)(F)F)ccn1)c1nc2cscc2[nH]1 (stereo not given); condition not met
[O-][S+](Cc1cc(OCC(F)(F)C(F)(F)C(F)(F)F)ccn1)c1nc2cscc2[nH]1 (stereo not given) [SAVIPRAZOLE]; condition not met
COc1ccnc(C[S+]([O-])c2nc3cscc3[nH]2)c1Br (stereo not given); condition not met
COc1ccnc(C[S+]([O-])c2nc3cscc3[nH]2)c1 (stereo not given); condition met

Turning now to a further compound:
Does the compound COc1ccnc(C[S+]([O-])c2nc3cscc3[nH]2)c1Cl (stereo not given) have recorded pKa that is 4 or more?
condition not met

---

species on record: Oryctolagus cuniculus; assay: cells; type: functional, organism-based, Stomach; settings: Stomach
// classify(record): look up IC50 in ranges bottom = under 2 µM, middle = from 2 µM up to 30 µM, top = 30 µM and over

[O-][S+](Cc1ncccc1Cl)c1nc2cscc2[nH]1 (configuration not stated); bottom

Hi there! Could you help me figure out the category for COc1ccnc(C[S+]([O-])c2nc3cscc3[nH]2)c1Cl (configuration not stated) please?
bottom

Note, next up: COC(=O)c1sc2[nH]c([S+]([O-])Cc3ccccn3)nc2c1C(=O)OC (configuration not stated)
top

Note, next up: Cc1sc(C)c2[nH]c([S+]([O-])Cc3cc(OCC(F)(F)F)ccn3)nc12 (configuration not stated)
middle

Note, next up: CCOc1ccnc(C[S+]([O-])c2nc3cscc3[nH]2)c1 (configuration not stated)
middle

Note, next up: [O-][S+](Cc1cc(Oc2ccc(F)cc2F)ccn1)c1nc2cscc2[nH]1 (configuration not stated)
bottom

Note, next up: COc1cc(C[S+]([O-])c2nc3cscc3[nH]2)ncc1Cl (configuration not stated)
top

Note, next up: COc1ccnc(C[S+]([O-])c2nc3cscc3[nH]2)c1 (configuration not stated)
middle

Note, next up: COc1ccnc(C[S+]([O-])c2nc3cscc3[nH]2)c1C (configuration not stated)
top

Note, next up: [O-][S+](Cc1nccc(OCC(F)(F)C(F)(F)F)c1Cl)c1nc2cscc2[nH]1 (configuration not stated)
middle

Note, next up: [O-][S+](Cc1ccccn1)c1nc2c(-c3ccccc3)scc2[nH]1 (configuration not stated)
top

Note, next up: COc1ccc(-c2scc3[nH]c([S+]([O-])Cc4ncc(C)c(OC)c4C)nc23)cc1 (configuration not stated)
middle

Note, next up: Cc1cnc(C[S+]([O-])c2nc3cscc3[nH]2)cc1OCC(F)(F)F (configuration not stated)
bottom

Note, next up: [O-][S+](Cc1cc(Oc2cccc(C(F)(F)F)c2)ccn1)c1nc2cscc2[nH]1 (configuration not stated)
middle

Note, next up: CCCOc1ccnc(C[S+]([O-])c2nc3cscc3[nH]2)c1Cl (configuration not stated)
middle

Note, next up: Cc1c(OCC(F)(F)C(F)(F)F)ccnc1C[S+]([O-])c1nc2cscc2[nH]1 (configuration not stated)
bottom

Note, next up: COc1c(OCC(F)(F)C(F)(F)C(F)(F)C(F)F)ccnc1C[S+]([O-])c1nc2cscc2[nH]1 (configuration not stated)
bottom

Note, next up: Cc1cnc(C[S+]([O-])c2nc3cscc3[nH]2)c(C)c1 (configuration not stated)
top

---

test: Chemical stability at pH 2.0; format: physicochemical; conditions: buffer
readoutLabel: half-life (min)
Field: numeric (min). Do not append units.

Previously resolved entries follow.
COc1c(OCC(F)(F)C(F)(F)F)ccnc1C[S+]([O-])c1nc2cscc2[nH]1 (stereo not drawn); 11
[O-][S+](Cc1cc(OCC(F)(F)C(F)(F)C(F)(F)F)ccn1)c1nc2cscc2[nH]1 (stereo not drawn) [SAVIPRAZOLE]; 3

In the following, a different molecule is considered.
Give its half-life value. Item: COc1ccc2[nH]c([S+]([O-])Cc3ncc(C)c(OC)c3C)nc2c1 (stereo not drawn) [OMEPRAZOLE]
720

---

Each record here notes measured IC50.
species on record: Oryctolagus cuniculus; assay: cells; type: functional, organism-based, Stomach
Field: numeric (µM). Do not append units.

[O-][S+](Cc1cc(OCc2ccc(F)cc2)ccn1)c1nc2cscc2[nH]1 (centres undefined); 0.5
COc1c(OCC(F)(F)C(F)(F)C(F)(F)F)ccnc1C[S+]([O-])c1nc2cscc2[nH]1 (centres undefined); 1.1
[O-][S+](Cc1cc(OC(F)F)ccn1)c1nc2cscc2[nH]1 (centres undefined); 1000

In the following, a different compound is considered.
Give its IC50 value. Item: COc1c(OCC(F)(F)C(F)F)ccnc1C[S+]([O-])c1nc2cscc2[nH]1 (centres undefined)
0.6

---

experiment: Chemical stability at pH 5.0; assay type: physicochemical; settings: buffer
Each record here notes measured half-life.
Field: numeric (h). Do not append units.

COc1c(OCC(F)(F)C(F)(F)F)ccnc1C[S+]([O-])c1nc2cscc2[nH]1 (stereo not drawn); 7.8
COc1ccc2[nH]c([S+]([O-])Cc3ncc(C)c(OC)c3C)nc2c1 (stereo not drawn); 2.26

In the following, a different compound is considered.
Give its half-life value. Item: [O-][S+](Cc1cc(OCC(F)(F)C(F)(F)C(F)(F)F)ccn1)c1nc2cscc2[nH]1 (stereo not drawn)
1.4

---

Each record here notes measured pIC50.
species on record: Oryctolagus cuniculus; assay: cells; format: functional, organism-based, Stomach; conditions: Stomach
Expect pIC50 as a plain number equal to -log10 of the molar concentration.

Give its pIC50 value. Item: [O-][S+](Cc1cc(OCC(F)(F)C(F)F)ccn1)c1nc2cscc2[nH]1 (stereo not given)
5.70

Note, next up: Cc1sc(C)c2[nH]c([S+]([O-])Cc3ccccn3)nc12 (stereo not given)
4.82

Note, next up: COc1ccnc(C[S+]([O-])c2nc3ccsc3[nH]2)c1 (stereo not given)
3.00

Note, next up: [O-][S+](Cc1nccc(OCC(F)(F)F)c1Cl)c1nc2cscc2[nH]1 (stereo not given)
3.00

Note, next up: [O-][S+](Cc1cc(OC(C(F)(F)F)C(F)(F)F)ccn1)c1nc2cscc2[nH]1 (stereo not given)
3.71

---

experiment: physchem
Each record here notes measured pKa.
Respond using a number only.

COc1c(OCC(F)(F)F)ccnc1C[S+]([O-])c1nc2cscc2[nH]1 (stereo unspecified); 3.52

Give its pKa value. Item: Cc1ccc(C[S+]([O-])c2nc3cscc3[nH]2)nc1 (stereo unspecified)
3.26

Note, next up: [O-][S+](Cc1cc(OCc2ccc(C(F)(F)F)cc2)ccn1)c1nc2cscc2[nH]1 (stereo unspecified)
3.74

Note, next up: [O-][S+](Cc1cc(OC(C(F)(F)F)C(F)(F)F)ccn1)c1nc2cscc2[nH]1 (stereo unspecified)
3.5

Note, next up: CCOc1ccnc(C[S+]([O-])c2nc3cscc3[nH]2)c1 (stereo unspecified)
3.92

Note, next up: COc1cc(C[S+]([O-])c2nc3cscc3[nH]2)ncc1Cl (stereo unspecified)
3.44
